Origin of the recorded values: ChEMBL document CHEMBL1134933

Observed log10 of IC50, system Adenylate cyclase type 5 (Homo sapiens, UniProt O95622).
Readout label: log10 of IC50 (log10 of the value in µM)

compound=Nc1ncnc2c1ncn2[C@@H]1C=C[C@H](OCC(=O)O)C1 readout_label="log10 of IC50" readout_value=1.99
compound="Nc1ncnc2c1ncn2[C@@H]1C=C[C@H](OCC(=O)NO)C1 (stereo in doubt; 5d)" readout_label="log10 of IC50" readout_value=1.98
compound="Nc1ncnc2c1ncn2[C@@H]1CC[C@H](OCC(=O)NO)C1 (stereo in doubt; 8d)" readout_label="log10 of IC50" readout_value=2.04
compound="Nc1ncnc2c1ncn2[C@H]1CC[C@@H](OCC(=O)NO)C1 (stereo in doubt; 8a)" readout_label="log10 of IC50" readout_value=2.04
compound="Nc1ncnc2c1ncn2[C@@H]1CC[C@H](OCC(=O)NO)C1 (stereo in doubt; 8b)" readout_label="log10 of IC50" readout_value=1.03
